FYI, the data here is from paper PMC4287489.

Tested System: Trypanosoma brucei ribose 5-phosphate isomerase B (TbRpiB) (Trypanosoma brucei, UniProt Q384D1)
Construct: recombinant N-terminal 6xHis-tagged TbRpiB expressed in E. coli; 155 residues per monomer
Sequence (Q384D1 entry or part of it): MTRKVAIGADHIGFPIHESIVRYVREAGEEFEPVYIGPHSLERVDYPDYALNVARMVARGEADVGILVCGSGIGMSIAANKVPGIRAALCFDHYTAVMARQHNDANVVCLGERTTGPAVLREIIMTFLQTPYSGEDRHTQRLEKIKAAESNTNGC
Assay Info: spectrophotometric isomerase assay ([…] nm) and cysteine-carbazole assay; Ki from Kmapp/Vmax plot; IC50 […]
Reported Endpoint: pKi
A value of pKi is the negative decimal logarithm of a concentration given in moles per litre.

Form: compound = O=C(NO)[C@H](O)[C@H](O)COP(=O)(O)O [4-PEH] ; pKi = 2.66
